Values compiled from the RNAGym collection of RNA variant scans (doi:10.1093/nar/gkz1192).

B1: CPEB3 Ribozyme (parent)
chain: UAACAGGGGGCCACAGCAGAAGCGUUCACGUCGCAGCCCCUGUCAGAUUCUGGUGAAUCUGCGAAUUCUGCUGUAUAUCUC

variants of: B1; assay: self-cleavage, relative activity (ratio to wild type); higher = more cleavage; in vitro, sequencing
quantity.kind: self-cleavage
Quick one: just the number, no unit, thanks!

For orientation, consider the following solved cases.
# mutation.annotation, quantity.kind, result.value
data = [
    ("A18U C44G", "self-cleavage", 0.24),
    ("U49C G63A", "self-cleavage", 0.39),
    ("G19A A20U", "self-cleavage", 0.11),
    ("C14U C23G", "self-cleavage", 0.12),
    ("A2G C81U", "self-cleavage", 0.81),
    ("A45G U80C", "self-cleavage", 0.91),
    ("A5U G55U", "self-cleavage", 1.15),
    ("A21C U48C", "self-cleavage", 0.19),
    ("U48A U49G", "self-cleavage", 0.21),
    ("A57U U69C", "self-cleavage", 0.3),
]

Ask: Return self-cleavage for the following variant: A5G C29G
Reply: 0.57
